Biological target: Cruzipain (Trypanosoma cruzi) (UniProt P25779)
Sequence (P25779 123-467 limits assumed): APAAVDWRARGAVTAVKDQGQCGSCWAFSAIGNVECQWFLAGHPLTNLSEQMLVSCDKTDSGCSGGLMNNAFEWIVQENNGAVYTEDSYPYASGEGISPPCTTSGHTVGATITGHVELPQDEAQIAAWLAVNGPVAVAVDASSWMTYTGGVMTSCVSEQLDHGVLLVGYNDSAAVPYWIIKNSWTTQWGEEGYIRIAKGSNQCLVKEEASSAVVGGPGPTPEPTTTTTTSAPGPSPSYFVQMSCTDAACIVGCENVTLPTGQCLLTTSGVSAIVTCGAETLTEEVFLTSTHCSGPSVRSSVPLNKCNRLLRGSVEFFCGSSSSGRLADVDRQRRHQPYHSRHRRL
Test: qHTS Assay for Promiscuous and Specific Inhibitors of Cruzain (without detergent);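 further: plate controls were enzyme without inhibitor for no effect and buffer without enzyme for full effect; nearly all actives have a fitted effect of over 40% in size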
Conditions: purified cruzain, Z-FR-AMC fluorescence, no detergent
The whole screen tested about 200,000 compounds, of which about 4,500 (2.2%) were called active. About 12% were inconclusive and are not listed. This excerpt belongs to a sample that is enriched for actives.
Exercise: state measured max response, negative = inhibition for each of the compounds provided.
Answers are plain numbers, in %.

compound	max response, negative = inhibition (%)
CCOc1ccc(N(CC)S(=O)(=O)N2CCCC(C(=O)Nc3ccc(C(C)=O)cc3)C2)cc1 (configuration not stated)	-0.766

// batch mode: one max response, negative = inhibition value per listed entry
1. Fc1cccc(-n2ncc3c2ncn2nc(-c4ccccc4Cl)nc32)c1
2. Cc1ccc(S(=O)(=O)N(CC(=O)Nc2ccc(Cl)cc2Cl)c2ccccc2C)cc1
3. CCSc1nnc(NC(=O)Cc2ccccc2OC)s1
4. COc1ccc(/C=N/NC(=O)c2ccccc2)cc1OS(=O)(=O)c1ccccc1
5. CCOC(=O)c1csc(NC(=O)Nc2cccc(OC)c2)n1
6. CN(c1ccc(C(=O)NCc2ccccn2)cc1)S(C)(=O)=O
7. COc1cc(CN(CC2CCCO2)C(=O)c2ccccc2F)cc(OC)c1OC (configuration not stated)
8. Cc1ccc(C)c(N2CCN(C(=O)CN3C(=O)COc4ccc(S(=O)(=O)N5CCCCCC5)cc43)CC2)c1

Out:
1. -11.9
2. -29.7
3. 0.739
4. -2.21
5. 8.19
6. -4.77
7. 17.1
8. -9.73

---

Target: Cruzipain (Trypanosoma cruzi)
Assay: qHTS Assay for Promiscuous and Specific Inhibitors of Cruzain (without detergent);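 further: plate controls were enzyme without inhibitor for no effect and buffer without enzyme for full effect; nearly all actives have a fitted effect of over 40% in size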
Settings: purified cruzain, Z-FR-AMC fluorescence, no detergent
About 4,500 (2.2%) of roughly 200,000 compounds were called active. Another 12% or so got no clear call; they are omitted. Shown is part of a subset that was picked to be rich in actives.
Kindly state max response, negative = inhibition for each of the entries shown.
One number for each entry, in %.

Some entries whose results are on file:
compound	units.text	max response, negative = inhibition
COc1ccccc1CN1CCC(CNC(=O)c2cnn(-c3cccc(Cl)c3)c2C2CCN(C(=O)OC(C)(C)C)CC2)CC1	%	4.5
Cc1ccc(-c2nn3c(=O)cc(CN4CCN(C(=O)Nc5cccc(C(F)(F)F)c5)CC4)nc3s2)cc1	%	-9.63
Cc1nc(C)c(-c2csc(NCCc3ccccc3)n2)s1	%	-11.5

Provide reported max response, negative = inhibition for each item, in the same order as listed.
1. Cc1cc(N2CCN(S(=O)(=O)c3ccc(C)c(C)c3)CC2)c2ccccc2n1
2. Cc1ccc(-c2nnc(Nc3ccc(OCC(N)=O)cc3)c3ccccc23)cc1S(=O)(=O)NCC1CCCO1 (stereo not drawn)
3. COc1cc(/C=N/NC(=O)c2ccccc2)ccc1OS(=O)(=O)c1ccccc1
4. CSc1ccc(C2C(C(=O)Nc3ccccc3)=C(C)Nc3nc4ccccc4n32)cc1 (stereo not drawn)
5. Cc1oc(-c2ccccc2F)nc1CN1CCC(C(=O)NCCc2ccc(Cl)cc2)CC1
6. Cc1ccccc1N1CCN(CCCOc2ccc3c(C)cc(=O)oc3c2)CC1
7. COc1ccc(Cl)cc1NC(=O)C(C)Sc1nc2c(c(=O)[nH]1)CCCC2 (stereo not drawn)
8. COc1ccc(-c2nn(-c3ccccc3)cc2/C=N/Nc2ccccn2)cc1OC

Out:
1: 1.17; 2: 7.01; 3: -10.2; 4: -7.45; 5: 1.36; 6: -15.8; 7: -3.86; 8: 18.4

For every record below, what is its max response, negative = inhibition?
1. COc1ccc(-c2cc(NCc3ccc(F)cc3)n3cnnc3n2)cc1
2. COc1ccc(Cn2ccnc2SCC(=O)NCc2ccco2)cc1
3. COc1ccc(C)cc1NC(=O)C(Sc1ccccc1)c1ccccc1 (stereo not drawn)

Out:
1. 6.65
2. -5.79
3. -12.8

Would you mind listing max response, negative = inhibition for each of the following compounds?
1. Cc1cccc(N(C)C(=O)CS(=O)(=O)c2cccc3nsnc23)c1
2. COc1ccc(Nc2ncc3c(n2)CCN(C(=O)OC(C)(C)C)C3)cc1

Out:
1. -1.79
2. -2.11

Hello, I would appreciate it if you could give max response, negative = inhibition for each entry below.
1. O=C(OCc1nc2ccccc2[nH]1)C1CCCCC1
2. Cc1cccc(N2CCN(C(=O)Cn3ncc4c5ccccc5n(C)c4c3=O)CC2C)c1 (stereo not drawn)

Out:
1: 6.92; 2: 2.09
